The measurements presented in this section are drawn from the supplement of paper PMC7877785.

# self-splicing fitness (ln) values compiled below
- measurement.protocol: self-splicing fitness, log relative to wild type (ln ratio); higher = more splicing; Tetrahymena group I intron in knt gene, E. coli kanamycin selection, DiMSum; sequences stand for … in CUCUCU…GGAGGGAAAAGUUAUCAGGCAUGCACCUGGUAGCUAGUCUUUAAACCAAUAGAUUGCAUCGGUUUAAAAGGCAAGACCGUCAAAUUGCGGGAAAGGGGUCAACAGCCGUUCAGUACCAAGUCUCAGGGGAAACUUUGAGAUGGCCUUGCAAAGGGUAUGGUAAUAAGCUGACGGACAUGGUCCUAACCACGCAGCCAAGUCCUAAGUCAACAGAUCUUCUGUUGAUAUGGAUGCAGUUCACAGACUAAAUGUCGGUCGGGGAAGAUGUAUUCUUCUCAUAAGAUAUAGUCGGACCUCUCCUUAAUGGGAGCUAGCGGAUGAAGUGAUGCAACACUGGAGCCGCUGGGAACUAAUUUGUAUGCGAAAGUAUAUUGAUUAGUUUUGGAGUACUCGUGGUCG;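 further: selection with 25 µg/mL kanamycin versus none on LB agar overnight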
- assay.context: 37 °C
Response field accepts a number only; no unit should be typed.

Completed entries (count: 3):
sequence.data: GACCAGCAAUAUUACGGCGC
self-splicing fitness (ln): 0.162
--
sequence.data: UCACAGCAAUAUUACGGGAA
self-splicing fitness (ln): -0.945
--
sequence.data: UCGGAGCAAUAUUACGGCAU
self-splicing fitness (ln): -1.97

Query sequence follows.
Ask: Please give the documented self-splicing fitness (ln) of CUCGAGCAAUAUUACGAAAU
Reply: -2.38

---

# self-splicing fitness (ln) values compiled below
- measurement.protocol: self-splicing fitness, log relative to wild type (ln ratio); higher = more splicing; Tetrahymena group I intron in knt gene, E. coli kanamycin selection, DiMSum; sequences stand for … in CUCUCU…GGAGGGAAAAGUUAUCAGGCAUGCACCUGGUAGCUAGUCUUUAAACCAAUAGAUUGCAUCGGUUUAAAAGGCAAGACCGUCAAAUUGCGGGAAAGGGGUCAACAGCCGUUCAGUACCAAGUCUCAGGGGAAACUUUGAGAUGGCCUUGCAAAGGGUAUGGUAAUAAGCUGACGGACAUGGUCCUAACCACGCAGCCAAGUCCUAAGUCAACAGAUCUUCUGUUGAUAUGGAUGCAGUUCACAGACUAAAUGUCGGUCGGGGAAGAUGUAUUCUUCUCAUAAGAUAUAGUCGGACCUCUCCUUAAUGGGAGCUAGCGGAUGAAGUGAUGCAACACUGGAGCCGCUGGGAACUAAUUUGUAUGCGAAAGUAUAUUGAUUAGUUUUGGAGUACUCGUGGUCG
- assay.context: 30 °C
Response field accepts a number only; no unit should be typed.

sequence.data: UAGCAGCAAUAUUACGCUAG
self-splicing fitness (ln): -2.94

Ask: Please give the documented self-splicing fitness (ln) of CAGAAGCAAUAUUACGGCCC
Reply: -2.98

Ask: Please give the documented self-splicing fitness (ln) of AAAUAGCAAUAUUACGCAGG
Reply: -1.68

Ask: Please give the documented self-splicing fitness (ln) of GUACAGCAAUAUUACGCGAG
Reply: -1.73

Ask: Please give the documented self-splicing fitness (ln) of CGGGAGCAAUAUUACGCGGG
Reply: -4.1

Ask: Please give the documented self-splicing fitness (ln) of CGUAAGCAAUAUUACGGAAG
Reply: -2.64

Ask: Please give the documented self-splicing fitness (ln) of CUUUAGCAAUAUUACGGAAG
Reply: -3.17
